Ref: patent US8163909B2

Biological target: CYP2D6 (Homo sapiens)
Test: CYP2D6 inhibition assay (bufuralol, pooled human liver microsomes)
Settings: 2D6 IC50, CYP enzyme inhibition
Documented IC50 across a set of molecules
The figure you give is taken to be in µM; do not add the unit.

# annotated cases, reported IC50 shown
- smiles-notation: "COCC(=O)N[C@@H](C[C@@H]1CCOC1)[C@H](O)CN[C@H]1CC2(CCC2)Oc2ncc(CC(C)(C)C)cc21"
  IC50 / µM: 16.9
- smiles-notation: "COCC(=O)N[C@@H](Cc1cccc([C@@H]2CCCO2)c1)[C@H](O)CN[C@H]1CC2(CCC2)Oc2ncc(CC(C)(C)C)cc21"
  IC50 / µM: 6.8

Now for another entry.
Please look up its IC50: C#Cc1cccc(C[C@H](NC(=O)[C@H]2CCCO2)[C@H](O)CN[C@H]2CC3(CCC3)Oc3ncc(CC(C)(C)C)cc32)c1 3.8

* * *

Target: CYP2D6 (Homo sapiens, UniProt P10635)
Sequence (P10635 whole entry): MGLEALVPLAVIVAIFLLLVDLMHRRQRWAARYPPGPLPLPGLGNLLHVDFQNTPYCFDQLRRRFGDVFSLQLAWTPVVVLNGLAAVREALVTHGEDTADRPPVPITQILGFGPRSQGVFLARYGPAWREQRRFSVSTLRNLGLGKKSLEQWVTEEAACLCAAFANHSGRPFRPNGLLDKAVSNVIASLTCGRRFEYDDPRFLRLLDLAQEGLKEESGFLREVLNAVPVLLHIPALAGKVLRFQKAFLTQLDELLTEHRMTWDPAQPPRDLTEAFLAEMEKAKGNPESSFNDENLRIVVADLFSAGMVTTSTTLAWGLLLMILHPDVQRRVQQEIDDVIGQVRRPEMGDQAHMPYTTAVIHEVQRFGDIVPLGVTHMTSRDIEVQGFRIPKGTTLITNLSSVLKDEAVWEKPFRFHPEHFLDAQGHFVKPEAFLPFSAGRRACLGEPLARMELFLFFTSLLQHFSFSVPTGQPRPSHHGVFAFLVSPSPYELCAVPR
Assay: CYP2D6 inhibition assay (bufuralol, pooled human liver microsomes)
Details: 2D6 IC50 (uM), CYP enzyme inhibition
# IC50 listing for each entry below
Write the value in µM as a bare number.

The following compounds have reported results that may help.
- compound: "CC(=O)N[C@@H](Cc1ccc2c(c1)OCO2)[C@H](O)CN[C@H]1CC2(CCC2)Oc2ncc(C(F)(F)C(C)(C)C)cc21 [compound 574]"
  target-system: "CYP2D6 (Homo sapiens, UniProt P10635)"
  u: "µM"
  IC50: 3.5
- compound: "CO[C@H](C)C(=O)N[C@@H](Cc1cc(F)cc(-c2nccs2)c1)[C@H](O)CN[C@H]1CC2(CCC2)Oc2ncc(CC(C)C)cc21 [Example 761]"
  target-system: "CYP2D6 (Homo sapiens, UniProt P10635)"
  u: "µM"
  IC50: 0.7
- compound: "COCC(=O)N[C@@H](Cc1cc(F)cc(F)c1)[C@H](O)CN[C@H]1CC2(CCC2)Oc2c(-c3ccncc3)cc(CC(C)(C)C)cc21 [Example 488]"
  target-system: "CYP2D6 (Homo sapiens, UniProt P10635)"
  u: "µM"
  IC50: 1.6
- compound: "CCCc1cnc2c(c1)[C@@H](NC[C@H](O)[C@@H](Cc1cc(F)cc(-c3nccs3)c1)NC(=O)[C@@H](C)OC)CC1(CCC1)O2 [compound 815]"
  target-system: "CYP2D6 (Homo sapiens, UniProt P10635)"
  u: "µM"
  IC50: 0.6

State the recorded IC50 for this entry: CC(=O)N[C@@H](Cc1cccc(F)c1)[C@H](O)CN[C@H]1CC2(CCC2)Oc2c1cc(CC(C)(C)C)nc2-n1ccnc1 [Example 506] 2.2

* * *

Below is a list of entries, each paired with its recorded IC50 value.
Biological target: CYP2D6 (Homo sapiens, UniProt P10635)
Experiment: CYP2D6 inhibition assay (bufuralol, pooled human liver microsomes)
Details: 2D6 IC50, CYP enzyme inhibition
Give just the numeric value; µM need not be written.

Record excerpt, results attached:
- smiles-notation: "CO[C@H](C)C(=O)N[C@@H](Cc1cccc(-c2nccs2)c1)[C@H](O)CN[C@H]1CC2(CCC2)Oc2ncc([C@@H]3CC3(C)C)cc21"
  target-system: "CYP2D6 (Homo sapiens, UniProt P10635)"
  u: "µM"
  IC50: 0.9
- smiles-notation: "C#Cc1cccc(C[C@H](NC(=O)[C@@H](C)OC)[C@H](O)CN[C@H]2CC3(CCC3)Oc3ncc(CC(C)(C)C)cc32)c1"
  target-system: "CYP2D6 (Homo sapiens, UniProt P10635)"
  u: "µM"
  IC50: 3.2
- smiles-notation: "COCC(=O)N[C@@H](Cc1ccc(F)cc1)[C@H](O)CN[C@H]1CC2(CCC2)Oc2nc(C)c(CC(C)(C)C)cc21"
  target-system: "CYP2D6 (Homo sapiens, UniProt P10635)"
  u: "µM"
  IC50: 9.6
- smiles-notation: "COCC(=O)N[C@@H](Cc1cc(F)cc(F)c1)[C@H](O)CN[C@H]1CC2(CCC2)Oc2c(-c3cncs3)cc(CC(C)(C)C)cc21"
  target-system: "CYP2D6 (Homo sapiens, UniProt P10635)"
  u: "µM"
  IC50: 12.8

GET /values?readout=IC50&item= CC(C)(C)Cc1cnc2c(c1)[C@@H](NC[C@@H](O)[C@H](Cc1ccc(F)cc1)NC(=O)C(C)(F)F)CC1(CCC1)O2 3.2

Follow-up entry: CO[C@H](C)C(=O)N[C@@H](Cc1cc(F)cc(F)c1)[C@H](O)CN[C@H]1CC2(CCC2)Oc2c(-c3cnc[nH]3)cc(CC(C)C)cc21 12.3

* * *

Target: CYP3A4 (CYP3A) (Homo sapiens);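 note: inhibition of CYP3A-mediated 1-hydroxymidazolam formation after 10 min incubation with NADPH, quantified by HPLC MS relative to metabolite produced without test compound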
Sequence (P08684 2-503): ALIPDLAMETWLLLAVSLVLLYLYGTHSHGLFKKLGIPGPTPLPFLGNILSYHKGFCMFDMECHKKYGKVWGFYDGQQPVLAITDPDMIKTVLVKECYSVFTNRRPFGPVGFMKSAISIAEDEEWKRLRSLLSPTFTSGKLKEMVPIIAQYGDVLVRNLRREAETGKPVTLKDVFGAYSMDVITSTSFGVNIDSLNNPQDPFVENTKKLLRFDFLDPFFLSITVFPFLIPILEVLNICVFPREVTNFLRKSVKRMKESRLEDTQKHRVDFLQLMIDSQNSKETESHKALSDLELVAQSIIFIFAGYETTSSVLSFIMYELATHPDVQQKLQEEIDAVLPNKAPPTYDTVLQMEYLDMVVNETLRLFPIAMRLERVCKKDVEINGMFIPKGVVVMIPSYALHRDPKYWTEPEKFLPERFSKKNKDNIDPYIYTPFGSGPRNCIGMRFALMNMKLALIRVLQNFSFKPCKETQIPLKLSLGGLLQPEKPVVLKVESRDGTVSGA
Assay: in vitro
Settings: microsomes, pH 7.4
Item-by-item account of IC50
Supply the numeric figure in µM, leaving out any unit text.

Recorded IC50 of CO[C@H](C)C(=O)N[C@@H](Cc1cc(F)cc(F)c1)[C@H](O)CN[C@H]1CC2(CCC2)Oc2c1cc(CC(C)(C)C)nc2-c1cncn1C [Example 652] , please. 0.16

Then what about the molecule C#Cc1cccc(C[C@H](NC(=O)COC)[C@H](O)CN[C@H]2CC3(CCC3)Oc3ncc(CC(C)(F)F)cc32)c1 [Example 829] ? 0.2

Try CC(C)Cc1cnc2c(c1)[C@@H](NC[C@@H](O)[C@H](Cc1ccc3c(c1)OCO3)NC(=O)[C@H]1CCCO1)CC1(CCC1)O2 [compound 551] next. 0.1

What do you have for COCC(=O)N[C@@H](Cc1cc(F)cc(F)c1)[C@H](O)CN[C@H]1CC2(CCC2)Oc2c(-c3ccncc3)cc(Cl)cc21 [compound 560] ? 0.2

Next up: COCC(=O)N[C@@H](Cc1ccc(F)cc1)[C@H](O)CN[C@H]1CC2(CCC2)Oc2c(-c3ccncc3)cc(CC(C)(C)C)cc21 [compound 562] 0.1

Try this molecule too: CO[C@H](C)C(=O)N[C@@H](Cc1cc(F)cc(Cl)c1)[C@H](O)CN[C@H]1CC2(CCC2)Oc2ncc(CC(C)(F)F)cc21 [compound 820] 0.3

* * *

Assay: Microsomal stability assay, rat liver microsomes;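 note: rat liver microsomes (0.25 mg/mL) with about 1 µM compound plus 1 mM NADPH, pH 7.4, 37 °C for 30 min, parent left measured by LC-MS/MS against 0 min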
Settings: rat liver microsomal data
assay-readout: RLM (µL/min/mg)
Entry rule: numbers only, all in µL/min/mg.

- smiles-notation: "CC(=O)N[C@@H](Cc1ccccc1)[C@H](O)CN[C@H]1CC2(CCC2)Oc2c1cc(CC(C)(C)C)nc2-c1ccncc1"
  experimental-value: 193
- smiles-notation: "CC1(C)C[C@H]1c1cnc2c(c1)[C@@H](NC[C@@H](O)[C@H](Cc1cccc(-c3nccs3)c1)NC(=O)[C@H]1CCCO1)CC1(CCC1)O2"
  experimental-value: 63
- smiles-notation: "CC(C)Cc1cnc2c(c1)[C@@H](NC[C@@H](O)[C@H](Cc1ccc3c(c1)OCO3)NC(=O)[C@H](C)F)CC1(CCC1)O2"
  experimental-value: 253

# RLM lookup, item C#Cc1cccc(C[C@H](NC(=O)COC)[C@H](O)CN[C@H]2CC3(CCC3)Oc3ncc(CC(C)(F)F)cc32)c1 23

Consider next the compound COCC(=O)N[C@@H](Cc1cc(F)cc(F)c1)[C@H](O)CN[C@H]1CC2(CCC2)Oc2c1cc(CC(C)(C)C)nc2-n1ccnc1 in the same way. 63

What do you get for CC(C)(C)Cc1cnc2c(c1)[C@@H](NC[C@@H](O)[C@H](Cc1cc(F)cc(-c3nccs3)c1)NC(=O)[C@@H]1CCCO1)CC1(CCC1)O2 ? 77

Then CO[C@H](C)C(=O)N[C@@H](Cc1cccc(-c2nccs2)c1)[C@H](O)CN[C@H]1CC2(CCC2)Oc2ncc(CC(C)C)cc21 ? 61

Again, but for COCC(=O)N[C@@H](Cc1cc(F)cc(F)c1)[C@H](O)CN[C@H]1CC2(CCC2)Oc2c1cc(CC(C)(C)C)nc2Nc1ccncc1 193

Okay, and C#Cc1cc(C[C@H](NC(=O)CC)[C@H](O)CN[C@H]2CC3(CCC3)Oc3ncc(CC(C)(C)C)cc32)ccc1F ? 60

Request: COCC(=O)N[C@@H](Cc1cccc([C@H]2CCCO2)c1)[C@H](O)CN[C@H]1CC2(CCC2)Oc2ncc(CC(C)(C)C)cc21 644

Also, COCC(=O)N[C@@H](Cc1cc(Br)cc(-c2nccs2)c1)[C@H](O)CN[C@H]1CC2(CCC2)Oc2ncc(CC(C)(C)C)cc21 please. 59

Same thing, different compound: CCOCC(=O)N[C@@H](Cc1cc(F)cc(-c2nccs2)c1)[C@H](O)CN[C@H]1CC2(CCC2)Oc2ncc(CC(C)(C)C)cc21 64

* * *

Target: Beta Secretase enzyme (BACE) (Homo sapiens)
Sequence (P56817 46-501): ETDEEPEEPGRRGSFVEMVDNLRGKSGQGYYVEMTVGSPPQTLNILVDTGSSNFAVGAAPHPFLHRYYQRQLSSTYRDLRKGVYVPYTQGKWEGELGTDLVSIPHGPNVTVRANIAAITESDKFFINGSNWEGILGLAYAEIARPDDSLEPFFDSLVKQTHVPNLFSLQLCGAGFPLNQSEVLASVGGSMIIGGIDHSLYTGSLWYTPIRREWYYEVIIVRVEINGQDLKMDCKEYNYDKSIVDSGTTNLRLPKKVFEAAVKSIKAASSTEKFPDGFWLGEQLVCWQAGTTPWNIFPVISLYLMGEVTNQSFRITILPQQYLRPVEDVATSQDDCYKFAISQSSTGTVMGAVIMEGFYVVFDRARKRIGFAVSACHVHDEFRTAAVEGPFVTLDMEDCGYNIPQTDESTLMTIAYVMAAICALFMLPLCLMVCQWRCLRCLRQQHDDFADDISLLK
Assay: In vitro enzymatic BACE FRET (fluorescence resonance energy transfer) assay;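 note: fluorescence read after 1 h with 50 nM quenched peptide substrate spanning the BACE cleavage site, in pH 4.2 acetate buffer containing 10% DMSO and nonionic detergent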
Format: biochemical
Conditions: read-out: BACE1 FRET assay (IC50)
// map IC50 to label using LOW: < 10 nM; MEDIUM: ≥ 10 nM and < 40 nM; HIGH: ≥ 40 nM

Solved entries:
- smiles-notation: "CO[C@H](C)C(=O)N[C@@H](Cc1ccncc1)[C@H](O)CN[C@H]1CC2(CCC2)Oc2ncc(C(F)(F)F)cc21"
  category-label: "HIGH"
- smiles-notation: "CO[C@H](C)C(=O)N[C@@H](Cc1ccc(F)cc1)[C@H](O)CN[C@H]1CC2(CCC2)Oc2c(-c3ccncc3)cc(CC(C)(C)F)cc21"
  category-label: "HIGH"
- smiles-notation: "COCC(=O)N[C@@H](Cc1ccc(F)cc1)[C@H](O)CN[C@H]1CC2(CCC2)Oc2c(-c3ccncc3)cc(CC(C)C)cc21"
  category-label: "MEDIUM"
- smiles-notation: "CO[C@H](C)C(=O)N[C@@H](Cc1cc(F)cc(F)c1)[C@H](O)CN[C@H]1CC2(CCC2)Oc2c(-c3ccncc3)cc(CC(C)C)cc21"
  category-label: "MEDIUM"
- smiles-notation: "CO[C@H](C)C(=O)N[C@@H](Cc1cncs1)[C@H](O)CN[C@H]1CC2(CCC2)Oc2c(-c3ccncc3)cc(CC(C)(C)C)cc21"
  category-label: "HIGH"

Tag the class for CC(=O)N[C@@H](Cc1cccc(-c2cccnc2)c1)[C@H](O)CN[C@H]1CC2(CCC2)Oc2ncc(CC(C)(C)C)cc21 LOW

Another compound to look at: CO[C@H](C)C(=O)N[C@@H](Cc1cccc(F)c1)[C@H](O)CN[C@H]1CC2(CCC2)Oc2c(-c3ccncc3)cc(CC(C)(C)C)cc21 MEDIUM

Cool, now COCC(=O)N[C@@H](Cc1cccc(F)c1)[C@H](O)CN[C@H]1CC2(CCC2)Oc2c(-c3ccncc3F)cc(CC(C)(C)C)cc21 LOW

Then COCC(=O)N[C@@H](Cc1cc(F)cc(F)c1)[C@H](O)CN[C@H]1CC2(CCC2)Oc2c1cc(CC(C)(C)C)nc2-c1ccc2c(c1)OCO2 ? LOW

What about COCC(=O)N[C@@H](Cc1cccc(F)c1)[C@H](O)CN[C@H]1CC2(CCC2)Oc2c(-c3ccnc(OC)c3)cc(CC(C)(C)C)cc21 ? LOW

Item: COCC(=O)N[C@@H](Cc1ccncc1)[C@H](O)CN[C@H]1CC2(CCC2)Oc2c(-c3ccncc3)cc(CC(C)C)cc21 HIGH

Another compound to check: CO[C@H](C)C(=O)N[C@@H](Cc1ccc(O)c(O)c1)[C@H](O)CN[C@H]1CC2(CCC2)Oc2ncc(CC(C)(C)C)cc21 LOW

Query CC(=O)N[C@@H](Cc1cccc(F)c1)[C@H](O)CN[C@H]1CC2(CCC2)Oc2c(-c3ccncc3)cc(Cl)cc21 next HIGH

Would you mind doing COCC(=O)N[C@@H](Cc1cncs1)[C@H](O)CN[C@H]1CC2(CCC2)Oc2c(-c3ccncc3)cc(CC(C)(C)C)cc21 as well? MEDIUM

Another compound: CO[C@H](C)C(=O)N[C@@H](Cc1cccc(F)c1)[C@H](O)CN[C@H]1CC2(CCC2)Oc2c(-c3ccncc3)cc(CC(C)C)cc21 LOW

// next record COCC(=O)N[C@@H](Cc1cc(F)cc(F)c1)[C@H](O)CN[C@H]1CC2(CCC2)Oc2c(-c3cncn3C)cc(CC(C)C)cc21 MEDIUM

Repeat for the following compound: CC(=O)N[C@@H](Cc1cccc(F)c1)[C@H](O)CN[C@H]1CC2(CCC2)Oc2c1cc(Cl)cc2-n1ccnc1 HIGH

Moving on to the next compound: CC(=O)N[C@@H](Cc1cccc(-c2nccs2)c1)[C@H](O)CN[C@H]1CC2(CCC2)Oc2ccc(CC(C)(C)C)cc21 LOW

Continue with CO[C@H](C)C(=O)N[C@@H](Cc1cc(F)cc(F)c1)[C@H](O)CN[C@H]1CC2(CCC2)Oc2c1cc(CC(C)(C)C)nc2-c1cncn1C MEDIUM
